Target: HPK1 (MAP4K1) (Homo sapiens, UniProt Q92918)
Sequence (Q92918 whole entry): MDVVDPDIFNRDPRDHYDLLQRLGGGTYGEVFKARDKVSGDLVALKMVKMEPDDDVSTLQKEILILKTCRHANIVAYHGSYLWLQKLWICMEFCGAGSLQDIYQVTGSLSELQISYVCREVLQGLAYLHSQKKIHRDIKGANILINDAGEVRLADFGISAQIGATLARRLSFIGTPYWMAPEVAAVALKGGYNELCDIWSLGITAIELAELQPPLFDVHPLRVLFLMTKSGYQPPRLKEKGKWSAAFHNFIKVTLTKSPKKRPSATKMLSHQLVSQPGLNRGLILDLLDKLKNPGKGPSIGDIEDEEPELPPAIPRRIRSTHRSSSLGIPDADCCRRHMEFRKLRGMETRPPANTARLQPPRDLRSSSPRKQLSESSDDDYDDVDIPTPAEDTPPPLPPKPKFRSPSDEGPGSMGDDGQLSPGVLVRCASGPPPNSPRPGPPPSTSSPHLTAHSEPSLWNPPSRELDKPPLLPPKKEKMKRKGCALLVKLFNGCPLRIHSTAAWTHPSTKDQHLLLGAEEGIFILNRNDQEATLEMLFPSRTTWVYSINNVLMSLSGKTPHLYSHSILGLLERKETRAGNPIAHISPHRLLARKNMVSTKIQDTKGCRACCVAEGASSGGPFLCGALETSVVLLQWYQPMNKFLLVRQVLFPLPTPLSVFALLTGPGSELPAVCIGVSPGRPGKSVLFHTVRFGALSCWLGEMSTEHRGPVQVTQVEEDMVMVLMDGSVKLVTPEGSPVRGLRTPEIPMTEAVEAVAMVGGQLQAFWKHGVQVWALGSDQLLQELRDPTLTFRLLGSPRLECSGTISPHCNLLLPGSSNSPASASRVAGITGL
Assay: FRET Assay for HPK1 (MAP4K1): one step binding assay, displacement of labeled tracer
Conditions: 10 μM compound; FRET ratio 665/620, percent of control
QUANTITY_MEASURED: inhibition at 10 µM (%)

{"COMPOUND": "C/C(Nc1cc(C(C)(C)O)n(C)n1)=C1/C(=O)Nc2cnc(-c3cnccc3C)cc21 [Example 150]", "inhibition at 10 µM (%)": 86.1}

[1] C/C(Nc1ccc(N(C)C)nc1)=C1/C(=O)Nc2cnc(-c3cnccc3C)cc21 [Example 109]
[2] COc1cccc(F)c1-c1cc2c(cn1)NC(=O)/C2=C(/C)Nc1ccc(N(C)C)nc1 [Example 117]
Ask: // which entry reports the smaller inhibition at 10 µM, 1 or 2 ? Please identify the chosen entry by its label.
Result: 2
(2: 56.4%, 1: 83.4%)

---

Molecular target: HPK1 (MAP4K1) (Homo sapiens, UniProt Q92918)
Assay: FRET Assay for HPK1 (MAP4K1): one step binding assay, displacement of labeled tracer
Settings: 1 μM compound; FRET ratio 665/620, percent of control
QUANTITY_MEASURED: inhibition at 1 µM (%)

{"CHEM_SMILES": "C/C(Nc1cnn(C)c1)=C1/C(=O)Nc2cnc(-c3cnc4c(c3C)NCCO4)cc21", "STUDY_SYSTEM": "HPK1 (MAP4K1) (Homo sapiens, UniProt Q92918)", "QUANTITY_MEASURED": "inhibition at 1 µM", "UNIT_STRING": "%", "NUMERIC_READOUT": 72.4}
{"CHEM_SMILES": "C/C(Nc1cc2n(n1)CCOC2)=C1/C(=O)Nc2cnc(-c3cnccc3C)cc21", "STUDY_SYSTEM": "HPK1 (MAP4K1) (Homo sapiens, UniProt Q92918)", "QUANTITY_MEASURED": "inhibition at 1 µM", "UNIT_STRING": "%", "NUMERIC_READOUT": 80.2}
{"CHEM_SMILES": "C/C(Nc1ccn(C)n1)=C1/C(=O)Nc2ccc(-c3cnccc3C)cc21", "STUDY_SYSTEM": "HPK1 (MAP4K1) (Homo sapiens, UniProt Q92918)", "QUANTITY_MEASURED": "inhibition at 1 µM", "UNIT_STRING": "%", "NUMERIC_READOUT": 72.8}
{"CHEM_SMILES": "C/C(Nc1ccn(C(C)(C)C#N)n1)=C1/C(=O)Nc2cnc(-c3c(C)cccc3F)cc21", "STUDY_SYSTEM": "HPK1 (MAP4K1) (Homo sapiens, UniProt Q92918)", "QUANTITY_MEASURED": "inhibition at 1 µM", "UNIT_STRING": "%", "NUMERIC_READOUT": 77.9}
{"CHEM_SMILES": "C/C(Nc1cnn(C(C)(C)C#N)c1)=C1/C(=O)Nc2ccc(-c3cnccc3C)nc21", "STUDY_SYSTEM": "HPK1 (MAP4K1) (Homo sapiens, UniProt Q92918)", "QUANTITY_MEASURED": "inhibition at 1 µM", "UNIT_STRING": "%", "NUMERIC_READOUT": 79.8}
{"CHEM_SMILES": "C/C(Nc1cc(C)n(C)n1)=C1/C(=O)Nc2ccc(-c3cnccc3C)cc21", "STUDY_SYSTEM": "HPK1 (MAP4K1) (Homo sapiens, UniProt Q92918)", "QUANTITY_MEASURED": "inhibition at 1 µM", "UNIT_STRING": "%", "NUMERIC_READOUT": 68.6}
{"CHEM_SMILES": "COc1cccc(F)c1-c1cc2c(cn1)NC(=O)/C2=C(/C)Nc1cnn(C)c1", "STUDY_SYSTEM": "HPK1 (MAP4K1) (Homo sapiens, UniProt Q92918)", "QUANTITY_MEASURED": "inhibition at 1 µM", "UNIT_STRING": "%", "NUMERIC_READOUT": 85.3}
{"CHEM_SMILES": "C/C(Nc1cc(C)n(CCC(C)C)n1)=C1/C(=O)Nc2cnc(-c3cnccc3C)cc21", "STUDY_SYSTEM": "HPK1 (MAP4K1) (Homo sapiens, UniProt Q92918)", "QUANTITY_MEASURED": "inhibition at 1 µM", "UNIT_STRING": "%", "NUMERIC_READOUT": 72.7}

Origin of values: patent US20230009626A1
